Target: T1, exon 6 peptide (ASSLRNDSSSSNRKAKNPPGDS), coated on ELISA plate (not fully specified)
T1 construct: No biotin is mentioned for the ELISA coat; also called a peptide of SCF248
T1 peptide: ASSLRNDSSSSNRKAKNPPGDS
Experiment: direct ELISA on coated peptide, IgG4, read at 450 nm

| binder | absorbance at 1000 ng/mL antibody (absorbance) |
| --- | --- |
| B104P mutant expressed as full length IgG4 antibody (antibody, V domains shown, Full length IgG4) VH: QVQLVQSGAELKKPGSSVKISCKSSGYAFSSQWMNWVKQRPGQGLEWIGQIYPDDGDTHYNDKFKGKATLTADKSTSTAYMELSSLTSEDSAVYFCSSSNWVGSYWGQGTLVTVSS VL: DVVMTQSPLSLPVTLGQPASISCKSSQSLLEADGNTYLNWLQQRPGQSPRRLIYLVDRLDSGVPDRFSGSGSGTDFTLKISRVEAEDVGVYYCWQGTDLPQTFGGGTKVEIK | 2.48 |
| D44P mutant expressed as full length IgG4 antibody (antibody, V domains shown, Full length IgG4) VH: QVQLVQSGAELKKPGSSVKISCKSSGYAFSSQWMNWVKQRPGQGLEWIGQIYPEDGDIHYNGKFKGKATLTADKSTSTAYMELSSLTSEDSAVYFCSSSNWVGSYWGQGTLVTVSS VL: DVVMTQSPLSLPVTLGQPASISCKSSQSLLEEDGNTYLNWLQQRPGQSPRRLIYLVDRLDSGVPDRFSGSGSGTDFTLKISRVEAEDVGVYYCWQGSHLPQTFGGGTKVEIK | 2.9 |
| A64P mutant expressed as full length IgG4 antibody (antibody, V domains shown, Full length IgG4) VH: QVQLVQSGAELKKPGSSVKISCKSSGYAFSSNWMNWVKQRPGQGLEWIGQIYPEDGDTHYNGKFKGKATLTADKSTSTAYMELSSLTSEDSAVYFCSSSNWVGSYWGQGTLVTVSS VL: DVVMTQSPLSLPVTLGQPASISCKSSQSLLEEDGNTYLNWLQQRPGQSPRRLIYLVNRLDDGVPDRFSGSGSGTDFTLKISRVEAEDVGVYYCWQGTDLPQTFGGGTKVEIK | 3.12 |
